Procedure text: pKa of BTB estimated by spectrophotometric titration in water and in model dishwashing detergent
Format: physicochemical
Conditions used: model dishwashing detergent diluted with deionized water, detergent conc 5 %, model dishwashing detergent (approx. 30% surfactant)
Text: Example of color change—pKa measurements—As outlined in the methods described by Brode (Journal of the American Chemical Society, Vol. 46, pp 581-596, 1924) and Puschett et al (Talanta, Vol. 38, Issue #3, pp 335-338, 1991), the pKa of bromothymol blue (BTB) is estimated in water and a model dishwashing detergent containing approximately 30% surfactant (combination of alkylethoxysulfonate and amine oxide). […]
Reported endpoint: pKa
Numbers only.

**Q:** Would you mind telling me what pKa value was observed for Cc1c(C2(c3cc(C(C)C)c(O)c(Br)c3C)OS(=O)(=O)c3ccccc32)cc(C(C)C)c(O)c1Br [BTB, bromothymol blue] ?
**A:** 9

###

Procedure text: pKa of BTB estimated by spectrophotometric titration in water and in model dishwashing detergent
Assay type: physicochemical
Conditions used: model dishwashing detergent diluted with deionized water, detergent conc 1 %, model dishwashing detergent (approx. 30% surfactant)
Reported endpoint: pKa
Numbers only.

**Q:** Would you mind telling me what pKa value was observed for Cc1c(C2(c3cc(C(C)C)c(O)c(Br)c3C)OS(=O)(=O)c3ccccc32)cc(C(C)C)c(O)c1Br [BTB, bromothymol blue] ?
**A:** 8.2
